# Assay Summary: Rate and extent of dissolution in No. 1 and No. 2 Heating Oils at 25° C. (colorimetric)
# Assay type: physicochemical
# Assay Context: No. 1 Fuel Oil, 10 Minutes, 25° C., aminoazobenzene dyes (Table 4)
Test Readout: Percent Dissolved (%)

Some compounds with known Percent Dissolved results, for comparison:
{"Compound": "OCCOCCNc1ccc2ccccc2c1N=Nc1ccc(N=Nc2ccccc2)cc1", "Display Unit": "%", "Recorded Result": 0.06}
{"Compound": "CCCCCCCCCCCCNc1ccc2ccccc2c1N=Nc1ccc(N=Nc2ccccc2)cc1", "Display Unit": "%", "Recorded Result": 4.60}
{"Compound": "CCCCCCNc1ccc2ccccc2c1N=Nc1ccc(N=Nc2ccccc2)cc1", "Display Unit": "%", "Recorded Result": 4.47}
{"Compound": "CCCCC(CC)CNc1ccc2ccccc2c1N=Nc1ccc(N=Nc2ccccc2)cc1 (centres unmarked)", "Display Unit": "%", "Recorded Result": 3.87}
{"Compound": "c1ccc(N=Nc2ccc(N=Nc3c(NC4CCCCC4)ccc4ccccc34)cc2)cc1", "Display Unit": "%", "Recorded Result": 2.25}

[1] CCCCNc1ccc2ccccc2c1N=Nc1ccc(N=Nc2ccccc2)cc1
[2] CCCCCCCCNc1ccc2ccccc2c1N=Nc1ccc(N=Nc2ccccc2)cc1
[3] COCCCNc1ccc2ccccc2c1N=Nc1ccc(N=Nc2ccccc2)cc1
Task field, ranking: reported Percent Dissolved, descending order. Give your ranking as a list of the labels in the requested order.
2, 3, 1

----------
# Assay Summary: Rate and extent of dissolution in No. 1 and No. 2 Heating Oils at 25° C. (colorimetric)
# Format: physicochemical
# Assay Context: No. 2 Fuel Oil, 10 Minutes, 25° C., aminoazobenzene dyes (Table 5)
Test Readout: Percent Dissolved (%)

Some molecules with known Percent Dissolved results, for comparison:
{"Mol": "CCCCCCCCNc1ccc2ccccc2c1N=Nc1ccc(N=Nc2ccccc2)cc1", "Display Unit": "%", "Recorded Result": 6.25}
{"Mol": "c1ccc(N=Nc2ccc(N=Nc3c(NC4CCCCC4)ccc4ccccc34)cc2)cc1", "Display Unit": "%", "Recorded Result": 3.10}
{"Mol": "CCCCCCCCCCNc1ccc2ccccc2c1N=Nc1ccc(N=Nc2ccccc2)cc1", "Display Unit": "%", "Recorded Result": 7.25}
{"Mol": "CCNc1ccc2ccccc2c1N=Nc1ccc(N=Nc2ccccc2)cc1", "Display Unit": "%", "Recorded Result": 1.64}
{"Mol": "CCOCCOCCCNc1ccc2ccccc2c1N=Nc1ccc(N=Nc2ccccc2)cc1", "Display Unit": "%", "Recorded Result": 0.58}

[1] COCCCNc1ccc2ccccc2c1N=Nc1ccc(N=Nc2ccccc2)cc1
[2] CCCCNc1ccc2ccccc2c1N=Nc1ccc(N=Nc2ccccc2)cc1
Smaller Percent Dissolved value? Options are 1 and 2 Lab log: write the label of the selected item as the result.
1
(1: 0.68%, 2: 2.03%)

----------
# Assay Summary: Rate and extent of dissolution in No. 1 and No. 2 Heating Oils at 25° C. (colorimetric)
# Type: physicochemical
# Assay Context: No. 2 Fuel Oil, 20 Minutes, 25° C., aminoazobenzene dyes (Table 5)
Test Readout: Percent Dissolved (%)

{"Compound": "CCNc1ccc2ccccc2c1N=Nc1ccc(N=Nc2ccccc2)cc1", "Percent Dissolved [%]": 1.78}
{"Compound": "CCCCC(CC)CNc1ccc2ccccc2c1N=Nc1ccc(N=Nc2ccccc2)cc1 (stereo not drawn)", "Percent Dissolved [%]": 5.13}
{"Compound": "CCCCC(CC)COCCCNc1ccc2ccccc2c1N=Nc1ccc(N=Nc2ccccc2)cc1 (stereo not drawn)", "Percent Dissolved [%]": 52.3}
{"Compound": "c1ccc(N=Nc2ccc(N=Nc3c(NC4CCCCC4)ccc4ccccc34)cc2)cc1", "Percent Dissolved [%]": 3.21}
{"Compound": "CCCCCCCNc1ccc2ccccc2c1N=Nc1ccc(N=Nc2ccccc2)cc1", "Percent Dissolved [%]": 8.90}

[A] CCCCNc1ccc2ccccc2c1N=Nc1ccc(N=Nc2ccccc2)cc1
[B] CCCCCCCCNc1ccc2ccccc2c1N=Nc1ccc(N=Nc2ccccc2)cc1
[C] OCCOCCNc1ccc2ccccc2c1N=Nc1ccc(N=Nc2ccccc2)cc1
[D] CCCCCCCCCCCCNc1ccc2ccccc2c1N=Nc1ccc(N=Nc2ccccc2)cc1
Task field, ranking: reported Percent Dissolved, descending order. Give your ranking as a list of the labels in the requested order.
D, B, A, C
(D: 9.06%, B: 6.25%, A: 2.12%, C: 0.21%)

----------
# Assay Summary: Storage solubility in xylene at 20°-25° C. and -10° C.
# Format: physicochemical
# Assay Context: 20° C.-25° C. (Table 12)
# Method: The solutions obtained were stored at 20°-25°C. and at -10° C. Where any separation of dye occurred, the dye content of the remaining solution was determined colorimetrically.
Test Readout: Solubility (% by Wt.)

{"Compound": "CCCCC(CC)CNc1ccc2ccccc2c1N=Nc1ccc(N=Nc2ccccc2C)cc1C (centres unmarked)", "Solubility (% by Wt.)": "Complete"}
{"Compound": "CCCCC(CC)CNc1ccc2ccccc2c1N=Nc1ccc(N=Nc2ccccc2)cc1 (centres unmarked)", "Solubility (% by Wt.)": "25.5 % by Wt."}
{"Compound": "CCCCC(CC)CNc1ccc2ccccc2c1N=Nc1cc(C)c(N=Nc2ccccc2C)cc1C (centres unmarked)", "Solubility (% by Wt.)": "50.0 % by Wt."}
{"Compound": "CCCCC(CC)COCCCNc1ccc2ccccc2c1N=Nc1ccc(N=Nc2ccccc2)cc1C (centres unmarked)", "Solubility (% by Wt.)": "Complete"}
{"Compound": "CCCCC(CC)COCCCNc1ccc2ccccc2c1N=Nc1ccc(N=Nc2ccccc2)cc1 (centres unmarked)", "Solubility (% by Wt.)": "Complete"}

Which measured Solubility (% by Wt.) value corresponds to CCCCC(CC)COCCCNc1ccc2ccccc2c1N=Nc1ccc(N=Nc2ccccc2C)cc1C (centres unmarked) ?
Complete

Please answer likewise for CCCCC(CC)CNc1ccc2ccccc2c1N=Nc1ccc(N=Nc2ccccc2)cc1C (centres unmarked)
Complete

Please answer likewise for CCCCC(CC)COCCCNc1ccc2ccccc2c1N=Nc1cc(C)c(N=Nc2ccccc2C)cc1C (centres unmarked)
36.3 % by Wt.

----------
# Assay Summary: Storage solubility in No. 1 and No. 2 Heating Oil at ambient temperature and -10° C.
# Type: physicochemical
# Assay Context: No. 1 Heating Oil, 20° C.-25° C. (Table 10)
Test Readout: Solubility (% by Wt.)

{"Compound": "CCCCC(CC)COCCCNc1ccc2ccccc2c1N=Nc1cc(C)c(N=Nc2ccccc2C)cc1C (stereo not shown)", "Test Readout": "Solubility (% by Wt.)", "Recorded Result": 29.5}

[I] CCCCC(CC)COCCCNc1ccc2ccccc2c1N=Nc1ccc(N=Nc2ccccc2)cc1C (stereo not shown)
[II] CCCCC(CC)COCCCNc1ccc2ccccc2c1N=Nc1ccc(N=Nc2ccccc2C)cc1C (stereo not shown)
Smaller Solubility (% by Wt.) value? Options are I and II Lab log: write the label of the selected item as the result.
II
(II: 8.3 % by Wt., I: 26.6 % by Wt.)

----------
# Assay Summary: Rate and extent of dissolution in No. 1 and No. 2 Heating Oils at 25° C. (colorimetric)
# Assay type: physicochemical
# Assay Context: No. 2 Fuel Oil, 20 Minutes, 25° C., aminoazotoluene dyes (Table 7)
Test Readout: Percent Dissolved (%)

Some molecules with known Percent Dissolved results, for comparison:
{"Molecule": "CCCCCCCCNc1ccc2ccccc2c1N=Nc1ccc(N=Nc2ccccc2C)cc1C [Example 37]", "Percent Dissolved (%)": 2.69}
{"Molecule": "CCCCC(CC)CNc1ccc2ccccc2c1N=Nc1ccc(N=Nc2ccccc2C)cc1C (stereo not shown) [Example 1]", "Percent Dissolved (%)": 55.3}
{"Molecule": "CCCCCCCCCCCCNc1ccc2ccccc2c1N=Nc1ccc(N=Nc2ccccc2C)cc1C [Example 41]", "Percent Dissolved (%)": 5.21}
{"Molecule": "CCOCCOCCCNc1ccc2ccccc2c1N=Nc1ccc(N=Nc2ccccc2C)cc1C [Example 35]", "Percent Dissolved (%)": 3.97}

[1] CCCCCCCNc1ccc2ccccc2c1N=Nc1ccc(N=Nc2ccccc2C)cc1C [Example 36]
[2] Cc1ccccc1N=Nc1ccc(N=Nc2c(NC3CCCCC3)ccc3ccccc23)c(C)c1 [Example 34]
When their Percent Dissolved values are compared, which is larger, 1 or 2 ? Lab log: write the label of the selected item as the result.
1

[A] CCNc1ccc2ccccc2c1N=Nc1ccc(N=Nc2ccccc2C)cc1C [Example 29]
[B] COCCCNc1ccc2ccccc2c1N=Nc1ccc(N=Nc2ccccc2C)cc1C [Example 31]
Smaller Percent Dissolved value? Options are A and B Lab log: write the label of the selected item as the result.
A
(A: 0.39%, B: 4.96%)

----------
# Assay Summary: Rate and extent of dissolution in No. 1 and No. 2 Heating Oils at 25° C. (colorimetric)
# Type: physicochemical
# Assay Context: No. 1 Fuel Oil, 20 Minutes, 25° C., aminoazobenzene dyes (Table 4)
Test Readout: Percent Dissolved (%)

{"Compound": "CCCCCCCCNc1ccc2ccccc2c1N=Nc1ccc(N=Nc2ccccc2)cc1", "Display Unit": "%", "Percent Dissolved": 5.96}
{"Compound": "CCCCCCCCCCNc1ccc2ccccc2c1N=Nc1ccc(N=Nc2ccccc2)cc1", "Display Unit": "%", "Percent Dissolved": 5.63}
{"Compound": "CCOCCOCCCNc1ccc2ccccc2c1N=Nc1ccc(N=Nc2ccccc2)cc1", "Display Unit": "%", "Percent Dissolved": 3.68}
{"Compound": "CCCCC(CC)CNc1ccc2ccccc2c1N=Nc1ccc(N=Nc2ccccc2)cc1 (stereo not drawn)", "Display Unit": "%", "Percent Dissolved": 4.47}
{"Compound": "CCCCCCCCCCCCNc1ccc2ccccc2c1N=Nc1ccc(N=Nc2ccccc2)cc1", "Display Unit": "%", "Percent Dissolved": 5.38}

[1] CCNc1ccc2ccccc2c1N=Nc1ccc(N=Nc2ccccc2)cc1
[2] CCCCCCCNc1ccc2ccccc2c1N=Nc1ccc(N=Nc2ccccc2)cc1
[3] OCCOCCNc1ccc2ccccc2c1N=Nc1ccc(N=Nc2ccccc2)cc1
Order the entries by their reported Percent Dissolved, beginning at the minimum. Give your ranking as a list of the labels in the requested order.
3, 1, 2
(3: 0.06%, 1: 1.48%, 2: 7.56%)
